System: CYP2C19
Experiment: Cocktail method in rats: pharmacokinetics of probe drug omeprazole (CYP2C19 activity)
Format: in vivo
Details: male, Wistar, positive group (phenobarbital 50 mg/kg ip 7 days), omeprazole 10 mg/kg iv, rat plasma
propertyLabel: clearance

> print(dat)
                                   molecule          result
1  COc1ccc2[nH]c([S+]([O-])Cc3ncc(C)c(OC)c3C)nc2c1 (stereo not shown)  10.2 mL/min/kg

---

System: CYP3A4
Experiment: Cocktail method in rats: pharmacokinetics of probe drug midazolam (CYP3A4 activity)
Settings: male, Wistar, rat, plasma, iv, 5 mg/kg, Cl, control group (saline ig 14 days), midazolam 5 mg/kg iv
propertyLabel: clearance (mL/min/kg)

> print(dat)
                           compoundstring  testsystem  unitstext  resultnumber
1  Cc1ncc2n1-c1ccc(Cl)cc1C(c1ccccc1F)=NC2      CYP3A4  mL/min/kg           104

---

Target: CYP1A2 (Rattus norvegicus, UniProt P04799)
Construct: from tissue; host or cells: whole animal, male Wistar rats (in vivo pharmacokinetics)
Sequence (P04799 whole entry): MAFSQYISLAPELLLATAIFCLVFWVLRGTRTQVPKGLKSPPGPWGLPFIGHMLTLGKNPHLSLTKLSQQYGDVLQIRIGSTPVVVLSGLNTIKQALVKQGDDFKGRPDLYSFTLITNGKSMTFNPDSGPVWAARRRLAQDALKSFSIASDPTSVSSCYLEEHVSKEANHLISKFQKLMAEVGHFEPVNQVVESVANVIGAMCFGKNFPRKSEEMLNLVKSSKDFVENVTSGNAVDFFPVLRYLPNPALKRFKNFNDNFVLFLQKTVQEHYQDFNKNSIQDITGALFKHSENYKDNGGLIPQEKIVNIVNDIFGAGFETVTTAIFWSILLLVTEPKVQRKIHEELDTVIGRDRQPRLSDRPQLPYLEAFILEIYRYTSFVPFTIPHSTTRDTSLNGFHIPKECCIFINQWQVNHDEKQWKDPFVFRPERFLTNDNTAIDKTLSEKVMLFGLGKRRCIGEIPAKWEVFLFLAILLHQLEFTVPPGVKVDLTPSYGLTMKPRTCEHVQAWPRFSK
Assay: Cocktail method in rats: pharmacokinetics of probe drug theophylline (CYP1A2 activity)
Format: in vivo
Conditions: male, Wistar, plasma, iv, 10 mg/kg, Digeda group (Digeda-4 decoction 600 mg/kg ig 14 days), theophylline 10 mg/kg iv
propertyLabel: clearance

> print(dat)
               compoundstring  propertylabel           result
1  Cn1c(=O)c2[nH]cnc2n(C)c1=O      clearance  0.333 mL/min/kg

---

Test system: CYP2C19
Test: Cocktail method in rats: pharmacokinetics of probe drug omeprazole (CYP2C19 activity)
Assay type: in vivo
Settings: male, Wistar, rat, plasma, iv, 10 mg/kg, control group (saline ig 14 days), omeprazole 10 mg/kg iv
propertyLabel: clearance (mL/min/kg)

> print(dat)
                                   compound  testsystem  unitstext  resultnumber
1  COc1ccc2[nH]c([S+]([O-])Cc3ncc(C)c(OC)c3C)nc2c1 (stereo not shown) [Omeprazole, omeprazole]     CYP2C19  mL/min/kg             8

---

System: CYP3A4
Assay: Cocktail method in rats: pharmacokinetics of probe drug midazolam (CYP3A4 activity)
Conditions: male, Wistar, rat, plasma, iv, 5 mg/kg, AUC0~t, control group (saline ig 14 days), midazolam 5 mg/kg iv
propertyLabel: AUC(0-t) (ng·h/mL)

> print(dat)
                           compoundstring  testsystem  resultnumber
1  Cc1ncc2n1-c1ccc(Cl)cc1C(c1ccccc1F)=NC2      CYP3A4           881

---

Tested on: CYP3A4
Assay: Cocktail method in rats: pharmacokinetics of probe drug midazolam (CYP3A4 activity)
Settings: male, Wistar, rat, plasma, iv, 5 mg/kg, AUC0~∞, control group (saline ig 14 days), midazolam 5 mg/kg iv
propertyLabel: AUC(0-inf) (ng·h/mL)

> print(dat)
                                   compound  testsystem  resultnumber
1  Cc1ncc2n1-c1ccc(Cl)cc1C(c1ccccc1F)=NC2 [Midazolam, midazolam]      CYP3A4           928

---

Test system: CYP3A4
Assay: Cocktail method in rats: pharmacokinetics of probe drug midazolam (CYP3A4 activity)
Settings: male, Wistar, rat, plasma, iv, 5 mg/kg, AUC0~t, Digeda group (Digeda-4 decoction 600 mg/kg ig 14 days), midazolam 5 mg/kg iv
propertyLabel: AUC(0-t) (ng·h/mL)

> print(dat)
                                   molecule  resultnumber
1  Cc1ncc2n1-c1ccc(Cl)cc1C(c1ccccc1F)=NC2 [Midazolam, midazolam]          1170
